Molecular target: MAP3K5 (human)
Experiment: radiometric filter-binding kinase assay, Kinase HotSpot
Details: compound 0.5 µM; ATP 10 µM
What residual activity was measured for each of the following?
Quick note: give the figure in %, leave out the unit.

Task: Recorded residual activity of `Fc1ccc(-c2nc3n(c2-c2ccncc2)CCS3)cc1` , please.
Output: 105

Task: Another compound: `COc1ccc(S(=O)(=O)N(CCO)c2ccccc2CN(C)C/C=C/c2ccc(Cl)cc2)cc1`
Output: 93.7

Task: Another compound: `Cc1cncc2cccc(S(=O)(=O)N3CCCN(C(=O)CN)C[C@H]3C)c12`
Output: 106

Task: Another compound: `CN(C)S(=O)(=O)c1ccc2c(c1)/C(=C/c1cc3c([nH]1)CCCC3)C(=O)N2`
Output: 106

Task: Another compound: `O=C1c2ccccc2-c2nc3nnnn3nc21`
Output: 106
